Tested on: Acinetobacter baumannii
Method: Antimicrobial activity against Acinetobacter baumannii ATCC 19606 assessed as bacterial growth inhibition after 24 hrs by standard broth microdilution method
Type: functional
Particulars: ATCC 19606, 24 h
Quick reference for MIC among some compounds
The answer is to be given in µg/mL; state only the numeric part.

Example results:
| Compound | MIC [µg/mL] |
| --- | --- |
| C[C@H]1COc2c(N3CCN(C)CC3)c(F)cc3c(=O)c(C(=O)O)cn1c23.C[C@H]1COc2c(N3CCN(C)CC3)c(F)cc3c(=O)c(C(=O)O)cn1c23.O [LEVOFLOXACIN] | 1 |
| CN(C)[C@@H]1C(O)=C(C(N)=O)C(=O)[C@@]2(O)C(O)=C3C(=O)c4c(O)cccc4[C@@](C)(O)[C@H]3C[C@@H]12 [TETRACYCLINE] | 2 |
| CC[C@H]1CCCC[C@@]2(C[C@@H]3CC[C@@H]4[C@H](C(=O)OCCCCCCCCCCCCCCCC(=O)N(CCCN)C[C@@H](O)CCN)[C@]5(CCC[C@@H](C)O5)N=C(N2)N34)O1 [CRAMBESCIDIN 800] | 2 |

Query compound follows.
I have this compound here, O=C(O)c1cn(C2CC2)c2cc(N3CCNCC3)c(F)cc2c1=O [CIPROFLOXACIN] , and I need its recorded MIC.
2
